These measurements were taken from patent US20080076824A1.

Assay: Microdose study of 14C-AlphaHGA in healthy volunteers, plasma pharmacokinetics (AMS)
Format: in vivo, human
Conditions: plasma, Period 1, Mean
Experimental: In this example, the pharmacokinetics (PK) and oral bioavailability of AlphaHGA in adult healthy volunteers following a single ‘microdose’ in a sequence-randomized, cross-over study design (two periods 7 days apart) was determined. […] For both oral and IV doses subjects were administered 100 nCi (3.7 Kbq) of alphaHGA, which was determined to contain 1.602888×10ˆ6 fmol of ^14C. […] Plasma specimens (30 μL) were analyzed directly via the combustive procedure without further chemical manipulation. […]
Structures can show the parent of a compound that is named as a salt.
metric_name: Cmax (nM)
Kindly answer with a numeric value in nM, unit omitted.

Using the record for NC(=O)C(N)O (stereo not drawn) [AlphaHGA, α-Hydroxy-glycinamide hydrochloride] , state its measured Cmax.
0.0477

---

System: HIV-1 (IIIB)
Conditions: read-out: EC50 against HIV-1(IIIB); CEM cell cultures, Table 2; listed as Glycinamide
metric_name: pEC50
// pEC50 here means minus log10 of the molar concentration (mol/L)

Give a short answer stating reported pEC50 for NCC(N)=O [G-NH2, glycinamide] .
4.67

---

Assay: Microdose study of 14C-AlphaHGA in healthy volunteers, plasma pharmacokinetics (AMS)
Type: in vivo, human
Conditions: plasma, Period 2, Min
Structures can show the parent of a compound that is named as a salt.
metric_name: Cmax

For NC(=O)C(N)O (stereo not drawn) [AlphaHGA, α-Hydroxy-glycinamide hydrochloride] , write its Cmax.
0.0392 nM

---

metric_name: melting point

• CCOC(N)C(=O)NC(=O)OCc1ccccc1 (stereo not drawn) [Example 25, α-ethoxy-N-benzyloxycarbonylglycinamide] = 119 to 121 °C

Give reported melting point value for CC(C)(C)OC(=O)NC(=O)C(N)OCc1ccccc1 (centres unmarked)
115 to 120 °C

State its melting point: COC(N)C(=O)NC(=O)OCc1ccccc1 (stereo not drawn) [Example 22, α-methoxy-N-benzyloxycarbonylglycinamide]
110 to 112 °C

Item CC(C)OC(N)C(=O)NC(=O)OCc1ccccc1 (centres unmarked) : provide melting point
111 to 113 °C

For the compound CCOC(=O)C(NC(=O)OCc1ccccc1)OCC (centres unmarked) , report melting point.
66 to 68 °C

---

Tested on: HIV-1 (IIIB)
Test: microbe, parasite or virus in culture
Conditions: read-out: EC50 (MT-4) HIV-1(IIIB); Table 20, related set of experiments
Method: MT-4, C8166 or CEM cells (4 to 5×10^5 cells per ml) were suspended in fresh culture medium (RPMI-1640 medium supplemented with 10% fetal bovine serum (FBS) (BioWittaker Europe, Verviers, Belgium), 2 mM L-glutamine and 0.075 M NaHCO3). […] After 4 to 5 days, giant cell formation was recorded microscopically in the CEM and C8166 cell cultures. The MT-4 cell cultures were treated with trypan blue and the number of viable cells was determined.
metric_name: EC50

State its EC50: NCC(N)=O [G-NH2, glycinamide]
> 500 µM

---

Tested on: HIV-1 (IIIB)
Assay: microbe, parasite or virus in culture
Conditions: read-out: EC50 (C8166) HIV-1 (IIIB); Table 20
Protocol: MT-4, C8166 or CEM cells (4 to 5×10^5 cells per ml) were suspended in fresh culture medium (RPMI-1640 medium supplemented with 10% fetal bovine serum (FBS) (BioWittaker Europe, Verviers, Belgium), 2 mM L-glutamine and 0.075 M NaHCO3). […] After 4 to 5 days, giant cell formation was recorded microscopically in the CEM and C8166 cell cultures. The MT-4 cell cultures were treated with trypan blue and the number of viable cells was determined.
metric_name: EC50 (µM)
State the answer as a number, implicitly in µM.

Look up and state reported EC50 for NCC(N)=O [G-NH2, glycinamide]
150
